biological target: mouse small intestinal UPase enzyme (Mus musculus); experiment: UPase inhibition in mouse small intestinal tissue homogenate (HPLC of uracil); format: biochemical; settings: Table 3; murine UPase, test method of Experiment IX; read-out: UPase IC50
Sequence (P52624 whole entry, looked up): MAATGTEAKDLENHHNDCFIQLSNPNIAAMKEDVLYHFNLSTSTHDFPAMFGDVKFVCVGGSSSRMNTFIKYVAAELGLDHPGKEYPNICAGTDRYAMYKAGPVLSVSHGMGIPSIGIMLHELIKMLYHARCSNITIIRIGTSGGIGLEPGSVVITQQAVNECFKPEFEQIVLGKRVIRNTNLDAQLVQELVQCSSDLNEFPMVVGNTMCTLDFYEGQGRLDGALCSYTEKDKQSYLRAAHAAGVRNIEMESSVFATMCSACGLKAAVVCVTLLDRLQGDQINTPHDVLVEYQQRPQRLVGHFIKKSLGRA
measuredParameter: IC50

Here's what some known entries look like.
molecule: Cc1cn2c(nc1=O)O[C@H]1[C@H](O)[C@@H](CN=[N+]=[N-])O[C@H]12 [TK-000011]
IC50: > 100 µM

molecule: CC(=N)OCc1cn2c(nc1=O)O[C@H]1[C@H](O)[C@@H](CO)O[C@H]12 [TK-000010]
IC50: > 100 µM

molecule: O=c1nc2n(cc1COCc1ccccc1)[C@@H]1O[C@H](CO)[C@@H](O)[C@@H]1O2 [TK-000008]
IC50: < 100 µM

molecule: Cc1cn2c(nc1=O)O[C@H]1C(O)[C@@H](CF)O[C@H]12 (some centres unmarked) [TK-000015]
IC50: > 100 µM

Exercise: Could you tell me which IC50 is on file for O=c1nc2n(cc1NCc1ccccc1)[C@@H]1O[C@H](CO)[C@@H](O)[C@@H]1O2 [TK-000006] ?
Solution: < 100 µM

Exercise: And the next one, CCOCc1cn2c(nc1=O)O[C@H]1[C@H](O)[C@@H](CO)O[C@H]12 [TK-000007] ?
Solution: < 100 µM

Exercise: And the next one, COCc1cn2c(nc1=O)O[C@H]1[C@H](O)[C@@H](CO)O[C@H]12 [TK-000009] ?
Solution: < 100 µM

Exercise: And the next one, Cc1cn2c(nc1=O)O[C@H]1[C@H](O)[C@@H](CO)O[C@H]12 [TK-112690, 2,2′-anhydro-5-methyluridine] ?
Solution: < 100 µM

* * *

biological target: UniProt P52624; experiment: UPase inhibition in mouse small intestinal tissue homogenate (HPLC of uracil); assay type: biochemical; conditions: 5 mM uridine, 37° C., pH 7.3; read-out: IC50, mouse small intestinal (murine) UPase
measuredParameter: IC50 (µM)
Form entry: value (µM) — number only.

Exercise: Kindly state the measured IC50 obtained for Cc1cn2c(nc1=O)O[C@H]1[C@H](O)[C@@H](CO)O[C@H]12 [TK-112690, 2,2′-anhydro-5-methyluridine] with UniProt P52624.
Solution: 12.5

Hey, just so you know, these numbers are from patent USRE48253E1.
